Method Summary: Toxicity liver stage against HepG2, at 10uM
Format: cell-based
Set-up: test concentration 10 uM, cell line HepG2-A16-CD81EGFP
Cond: human, HepG2-A16-CD81EGFP cells; read-out: INHIBITION
Reported cytotoxicity at 10 µM values follow for various molecules
// return numeric value only (unit: %, not printed)

Known results for molecules:
COC(=O)c1ccc(N2CCC(C(O)c3ccccc3)CC2)nn1 (centres undefined) :: 1.68
O=C(O)C(c1ccc2c(c1)OCCO2)N1CCSCC1 (centres undefined) :: 1.38
COc1cccc(C2CCCN2C(=O)c2cc3c([nH]c2=O)CCC3)c1 (centres undefined) :: -12

Which value of cytotoxicity at 10 µM has been reported for Cc1ccccc1-n1cc(-c2ccnc(N3CCCC(O)C3)n2)cn1 (centres undefined) in the records?
6.48

Similarly, `Cc1ccn(-c2ccnc(N3CCN(c4ncccn4)CC3)n2)n1` ?
13.4

Similarly, `Cc1noc(C(C)C)c1C(=O)NCCCN1CCCC1` ?
-13.5

Similarly, Cc1nccn1CCC1CCN(C(=O)C2CC3(CCNCC3)CN2)CC1 (centres undefined) ?
-1.64

Similarly, CSc1ncccc1C(=O)N(C)C(C)Cc1ccccn1 (centres undefined) ?
2.28

====

Reported cytotoxicity at 10 µM values follow for various molecules
Method Summary: Toxicity liver stage against HepG2, at 10uM
Assay type: cell-based
Parameters: test concentration 10 uM, cell line HepG2-A16-CD81EGFP
Cond: human, HepG2-A16-CD81EGFP cells; read-out: INHIBITION
Report field: quantity (unit follows the number).

Known results for molecules:
Cc1ccc(-c2nc(C(=O)N3CCOCC3)cs2)c(C)c1 :: 0.22%
Cc1nc(NCc2coc(-c3ccccc3)n2)cc(C2CCNCC2)n1 :: 7.94%
O=C(NC1CCCC1)c1ccnc(C2CCNCC2)c1 :: -11.3%

Which value of cytotoxicity at 10 µM has been reported for `CCN(CCC1CCN(C(=O)NCc2nncn2CC)CC1)CC1CC1` in the records?
-2.75%

Similarly, `CSCC(=O)N1CCc2c(cnc(C)c2-c2noc(-c3cc[nH]n3)n2)C1` ?
1.87%

Similarly, `CC(=O)NC1CCN(c2cnc(C3CCNCC3)cn2)CC1` ?
8%

Similarly, CC(=O)N1CCCC(Cc2cnc(-c3c(C)nn(C)c3C)cn2)C1 (centres undefined) ?
-1.37%

Similarly, `COCCN1C(=O)c2ccc(C(=O)NCCc3c[nH]cn3)cc2C1=O` ?
-7.13%

====

Reported cytotoxicity at 10 µM values follow for various compounds
Method Summary: Toxicity liver stage against HepG2, at 10uM
Format: cell-based
Design: test concentration 10 uM, cell line HepG2-A16-CD81EGFP
Cond: human, HepG2-A16-CD81EGFP cells; read-out: INHIBITION
Report field: quantity (unit follows the number).

Cc1cc(N2CCCC(O)CC2)n2nc(C)c(C)c2n1 (centres undefined) :: 7.46%
CN(CCO)c1nc(-c2ccccn2)nc2c1CCNC2 :: -4.12%
CCOCC(=O)N1CCC2(CC1)CC(c1ccccc1)CO2 (centres undefined) :: -113%
CCOc1ncccc1CNC(=O)N1CCCC1c1cc(C)no1 (centres undefined) :: 23.7%
O=C(c1cnn2c1OCCC2)N1CCC(Cc2ccccc2)CC1 :: 0.524%

Which value of cytotoxicity at 10 µM has been reported for `Cc1cnc(C(=O)N(CCN(C)C)Cc2ccc(Cl)cc2)cn1` in the records?
1.58%

Similarly, `CCNC(=O)[C@@H]1C[C@H](NC(=O)c2ccc(C)s2)CN1Cc1ccc(C)o1` ?
-5.39%

Similarly, CCOCC1CN(C(=O)c2cccc(C)n2)Cc2cnn(C)c21 (centres undefined) ?
2.98%

Similarly, CCc1nc(C2CCCN2CC(=O)N2CCCc3ccccc32)no1 (centres undefined) ?
-25.2%

Similarly, `Cc1cc(SCC(=O)O)nc2nn(CC(F)F)c(C)c12` ?
45.5%

Similarly, CCCS(=O)(=O)N1CCOCC2(CCN(c3ccccn3)C2)C1 (centres undefined) ?
2.42%

Similarly, `COc1ccc(OC)c(-c2nc(CN(C)Cc3nncn3C)c(C)o2)c1` ?
-9.57%

Similarly, `COc1ccc(CN(C)[C@@H]2CN(C(=O)c3cnn(C)c3)C[C@H]2O)cc1` ?
-21.9%

====

Method Summary: Toxicity liver stage against HepG2, at 10uM
Format: cell-based
Set-up: test concentration 10 uM, cell line HepG2-A16-CD81EGFP
Cond: human, HepG2-A16-CD81EGFP cells; read-out: INHIBITION
Reported cytotoxicity at 10 µM values follow for various compounds

Known results for compounds:
CCCC(NC(=O)c1ccc(OC)cc1C)c1nnn[nH]1 (stereo not drawn) :: 2.06%
CC(O)CN1CCN(C(=O)c2cnn(-c3ccccc3F)c2)CC1 (stereo not drawn) :: -6.81%
Cc1nn2cc(CCNC(=O)c3cc(C(C)C)no3)nc2s1 :: -4.8%
Cn1cnc2c1CCN(Cc1csc(-c3ccco3)n1)C2 :: -17.4%
N#CC1CCCN(C(=O)Cn2ncc(N3CCCC3)cc2=O)C1 (stereo not drawn) :: -6.36%

Which value of cytotoxicity at 10 µM has been reported for `COCc1cccc(NC(=O)N(C)Cc2ncc(C)c(OC)c2C)c1` in the records?
-1.01%

Similarly, `CC(=O)NCCc1nc(C(C)C)nn1-c1ccncc1C` ?
3.26%

Similarly, `O=C(c1cnn(-c2ccccc2Cl)c1)N1CCN(CCO)CC1` ?
-4.26%

====

Reported cytotoxicity at 10 µM values follow for various compounds
Method Summary: Toxicity liver stage against HepG2, at 10uM
Assay type: cell-based
Design: test concentration 10 uM, cell line HepG2-A16-CD81EGFP
Cond: human, HepG2-A16-CD81EGFP cells; read-out: INHIBITION
// return numeric value only (unit: %, not printed)

Cc1ncncc1C(=O)N1CCCC1c1c(C)nn(C)c1Cl (configuration not stated) :: -12.2
CN(Cc1csc(-c2cccs2)n1)CC(O)CO (configuration not stated) :: -0.712
c1csc(-c2noc(C3CNC3)n2)c1 :: -5.39
O=C(Nc1nnc(C2CC2)s1)NC1CCOc2ccccc21 (configuration not stated) :: 24.2

Which value of cytotoxicity at 10 µM has been reported for `O=S(=O)(c1ccc(Cl)cc1)N1CCOC[C@H](Oc2cnccn2)C1` in the records?
-2.57

Similarly, Cc1cc(N2CCC3(CCCN(CCO)C3=O)C2)nc2cc(Cl)ccc12 (configuration not stated) ?
3.72

Similarly, Cc1cc(CCCC(=O)NC2CCN(C)C2=O)c(C)s1 (configuration not stated) ?
-0.67

Similarly, Cc1cccc(C(=O)N2CCCC(c3nccn3Cc3cscn3)C2)n1 (configuration not stated) ?
-1.28

====

Reported cytotoxicity at 10 µM values follow for various molecules
Method Summary: Toxicity liver stage against HepG2, at 10uM
Type: cell-based
Parameters: test concentration 10 uM, cell line HepG2-A16-CD81EGFP
Cond: human, HepG2-A16-CD81EGFP cells; read-out: INHIBITION
// return numeric value only (unit: %, not printed)

Known results for molecules:
Cc1cc(C(=O)N2CCCC(C(=O)c3nccn3C)C2)c(=O)[nH]c1C (stereo not drawn) :: 3.15
Cc1cccnc1CN1CCC(c2nnc(Cn3cccn3)n2C)CC1 :: -11.5

Which value of cytotoxicity at 10 µM has been reported for O=C(Cc1csc(-c2ccco2)n1)N1CCCC1Cn1cccn1 (stereo not drawn) in the records?
-11.2

Similarly, CCCN(C(=O)CN1CCN(CC(C)O)CC1)C1=CCCCC1 (stereo not drawn) ?
4.13

Similarly, Cn1cc(Cl)cc1C(=O)N1CCC2(CCCN(CC3CCC3)C2=O)C1 (stereo not drawn) ?
0.407

Similarly, CC(=O)NC(C)c1ccc(OCC2CC2)c(F)c1 (stereo not drawn) ?
-7.81

Similarly, `CNS(=O)(=O)CCn1cc(-c2cc3c(cc2OC)CCC3)nn1` ?
-2.12

Similarly, CC(C)N1CCc2ncn(C)c2C1C(=O)NCCN1CCCC1 (stereo not drawn) ?
-0.511

Similarly, Cc1nc(C)n(CC2CCCN2CC(=O)Nc2c(C)n[nH]c2C)n1 (stereo not drawn) ?
-7.66

Similarly, `CCOc1cc(C)ccc1NS(=O)(=O)c1cc(C)c(C(=O)O)s1` ?
-6.44

Similarly, Cc1ncc(CN(C)C)c(C2CCCN2c2ncccn2)n1 (stereo not drawn) ?
-0.6

Similarly, COc1ccc(F)c(CN2CC(=O)N(c3ccccc3C)CC2C)c1 (stereo not drawn) ?
-0.757

Similarly, `Cc1ccc(CN(CCN(C)C)Cc2nc3ccccc3[nH]2)s1` ?
3.34

Similarly, O=C(CNc1ccc(OC2CCOC2)cc1)NCc1ccc(F)cc1 (stereo not drawn) ?
3.4

Similarly, `COc1ccc([C@@H]2C[C@H](NC(C)=O)C[C@H](CCc3ccccc3)O2)cn1` ?
-3.13

Similarly, `O=C(NCCC(=O)N1CCCc2ccccc21)c1c(F)cccc1F` ?
-14.5

Similarly, COCCOCC(=O)NC(C#N)c1c(F)cccc1Cl (stereo not drawn) ?
19.6

Similarly, `CN(CCCOc1ccccc1)S(=O)(=O)c1cnn(C)c1` ?
-6.7

Similarly, N#CCCN(CC1CCOC1)Cn1ccc(-c2ccccc2)n1 (stereo not drawn) ?
-3.8

Similarly, `CCN(CCC(=O)OC)S(=O)(=O)c1cnc2c(c1)c(C)nn2C` ?
-15.2
